meta.source: ChEMBL document CHEMBL2046359

pIC50: −log10 of the molar value.
Endpoint: pIC50. System: Epidermal growth factor receptor (Homo sapiens, UniProt P00533). Items follow.
Sequence (P00533 whole entry): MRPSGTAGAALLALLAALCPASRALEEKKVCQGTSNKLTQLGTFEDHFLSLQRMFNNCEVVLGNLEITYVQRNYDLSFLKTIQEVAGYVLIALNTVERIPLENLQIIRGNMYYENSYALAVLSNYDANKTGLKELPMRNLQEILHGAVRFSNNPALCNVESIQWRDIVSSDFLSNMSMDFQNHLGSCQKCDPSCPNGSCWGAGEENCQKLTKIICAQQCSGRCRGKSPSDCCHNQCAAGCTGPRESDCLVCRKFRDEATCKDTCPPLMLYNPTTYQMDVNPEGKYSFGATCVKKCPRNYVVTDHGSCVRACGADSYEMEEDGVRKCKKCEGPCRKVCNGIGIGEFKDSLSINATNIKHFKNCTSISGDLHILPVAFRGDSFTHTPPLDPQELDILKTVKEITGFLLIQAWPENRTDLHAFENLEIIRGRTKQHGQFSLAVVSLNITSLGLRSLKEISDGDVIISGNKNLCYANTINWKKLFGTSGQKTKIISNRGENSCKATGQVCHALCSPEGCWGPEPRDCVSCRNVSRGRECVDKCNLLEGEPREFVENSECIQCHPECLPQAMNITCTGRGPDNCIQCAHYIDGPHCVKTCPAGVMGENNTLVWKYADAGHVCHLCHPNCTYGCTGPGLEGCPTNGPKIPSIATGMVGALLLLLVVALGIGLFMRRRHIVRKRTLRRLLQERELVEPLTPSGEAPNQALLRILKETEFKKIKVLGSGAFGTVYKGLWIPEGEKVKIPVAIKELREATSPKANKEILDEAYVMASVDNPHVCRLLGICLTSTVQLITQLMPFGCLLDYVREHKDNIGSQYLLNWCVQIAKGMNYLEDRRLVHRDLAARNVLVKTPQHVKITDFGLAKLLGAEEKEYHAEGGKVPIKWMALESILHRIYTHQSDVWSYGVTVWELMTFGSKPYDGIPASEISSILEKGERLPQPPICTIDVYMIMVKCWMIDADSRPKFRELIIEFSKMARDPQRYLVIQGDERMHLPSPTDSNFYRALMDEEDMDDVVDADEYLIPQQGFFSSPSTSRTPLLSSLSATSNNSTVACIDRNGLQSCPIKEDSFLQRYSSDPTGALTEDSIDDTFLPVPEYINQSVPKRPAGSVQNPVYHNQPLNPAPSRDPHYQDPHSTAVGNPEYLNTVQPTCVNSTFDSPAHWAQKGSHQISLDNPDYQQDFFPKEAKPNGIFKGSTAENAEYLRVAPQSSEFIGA

As a guide, the following entries are already answered.
COc1cccc(Nc2nc(N)nc3c2-c2ccccc2C3)c1 :: < 3.70
Nc1nc2c(c(Nc3ccccc3)n1)-c1ccccc1C2 :: < 3.70
Nc1nc2c(c(Nc3ccc(F)c(Cl)c3)n1)-c1ccccc1C2 :: < 3.70

Readout pIC50 for CC(C)c1ccccc1Nc1nc(N)nc2c1-c1ccccc1C2 , test system Epidermal growth factor receptor (Homo sapiens, UniProt P00533), was < 3.70

Readout pIC50 for Nc1nc2c(c(Nc3cccc(F)c3)n1)-c1ccccc1C2 , test system Epidermal growth factor receptor (Homo sapiens, UniProt P00533), was < 3.52

Readout pIC50 for Nc1nc2c(c(Nc3ccc(C(F)(F)F)cc3)n1)-c1ccccc1C2 , test system Epidermal growth factor receptor (Homo sapiens, UniProt P00533), was < 3.52

Readout pIC50 for Nc1nc2c(c(Nc3ccc(F)cc3)n1)-c1ccccc1C2 , test system Epidermal growth factor receptor (Homo sapiens, UniProt P00533), was 3.56

====

experiment: Inhibition of Escherichia coli thymidylate synthase
pIC50: −log10 of the molar value.
QUANTITY NAME: pIC50

Quick note, pIC50 for Nc1nc2c(c(Nc3ccc(F)c(Cl)c3)n1)-c1ccccc1C2 landed at < 4.89

Quick note, pIC50 for Nc1nc2c(c(Nc3ccc(Cl)cc3)n1)-c1ccccc1C2 landed at < 4.85

Quick note, pIC50 for CC(C)c1ccc(Nc2nc(N)nc3c2-c2ccccc2C3)cc1 landed at < 4.85

Quick note, pIC50 for Nc1nc2c(c(Nc3cccc(Br)c3)n1)-c1ccccc1C2 landed at < 4.92

Quick note, pIC50 for Nc1nc2c(c(Nc3ccc(Cl)cc3F)n1)-c1ccccc1C2 landed at < 4.89

====

Target: Bifunctional dihydrofolate reductase-thymidylate synthase (Toxoplasma gondii, UniProt Q07422)
Sequence (Q07422 whole entry): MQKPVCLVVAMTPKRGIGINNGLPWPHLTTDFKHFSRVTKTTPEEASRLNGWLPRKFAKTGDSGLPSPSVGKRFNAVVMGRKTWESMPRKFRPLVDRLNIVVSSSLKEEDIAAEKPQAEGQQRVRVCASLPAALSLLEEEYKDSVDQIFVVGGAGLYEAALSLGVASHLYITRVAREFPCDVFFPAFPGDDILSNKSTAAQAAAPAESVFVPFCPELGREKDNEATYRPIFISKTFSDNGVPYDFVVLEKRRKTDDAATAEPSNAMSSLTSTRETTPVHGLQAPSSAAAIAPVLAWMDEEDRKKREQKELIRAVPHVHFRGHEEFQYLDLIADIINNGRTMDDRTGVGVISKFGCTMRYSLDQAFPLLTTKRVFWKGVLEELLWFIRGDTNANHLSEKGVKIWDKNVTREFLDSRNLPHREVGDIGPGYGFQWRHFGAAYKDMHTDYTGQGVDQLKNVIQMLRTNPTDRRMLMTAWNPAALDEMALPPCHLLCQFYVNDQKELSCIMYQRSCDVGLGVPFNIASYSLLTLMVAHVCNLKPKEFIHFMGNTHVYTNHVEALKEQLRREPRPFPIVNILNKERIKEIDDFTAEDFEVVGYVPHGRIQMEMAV
Experiment: Inhibition of Toxoplasma gondii thymidylate synthase
The following compounds are shown together with reported IC50 values.

As a guide, the following entries are already answered.
Nc1nc2c(c(Nc3ccc(Cl)cc3)n1)-c1ccccc1C2 :: > 14 µM
Nc1nc2c(c(Nc3cccc(Br)c3)n1)-c1ccccc1C2 :: > 12 µM
Nc1nc2c(c(Nc3ccc(Cl)cc3F)n1)-c1ccccc1C2 :: > 13 µM

Quick note, IC50 for CC(C)c1ccc(Nc2nc(N)nc3c2-c2ccccc2C3)cc1 landed at > 14 µM

Quick note, IC50 for Nc1nc2c(c(Nc3ccc(F)c(Cl)c3)n1)-c1ccccc1C2 landed at > 13 µM
